The reported numbers originate from ChEMBL document CHEMBL1125397.

Reported pIC50 values are given for each entry in this list.
- Test system: Raji
- method_notes: Compound concentration required to reduce by 50% the number of human B (Raji)cells after three cell cycles
- Type: functional
- condition_info: read-out: ID50 (the source's name)
pIC50: −log10 of the molar value.

As a guide, the following entries are already answered.
| compound | value_measured |
| --- | --- |
| NC(=O)c1nn([C@@H]2O[C@H](CO)[C@@H](O)[C@H]2O)cc1I | < 2.87 |
| NC(=O)c1nn(C2O[C@H](CO)[C@@H](O)[C@H]2O)cc1Br (stereo partly drawn) | < 2.81 |

Attention now shifts to the item below.
Given item Cc1c(N)c(C(N)=O)nn1C1O[C@H](CO)[C@@H](O)[C@H]1O (stereo partly drawn) , the value recorded as its pIC50 is < 2.74
